The origin of these recorded values is PubChem BioAssay AID1902.

Give EC50 for every item shown.
targetEntity: S. pyogenes SKKanGAS, kanamycin survival, BacTiterGlo, 6 h
experimentNotes: S. pyogenes SKKanGAS kanamycin growth inhibitors – SKKanGAS strain, luminescence, dose confirmation, streptokinase promoter inhibitor project, dose response (AID 1902);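 further: lower survival reflects blocked streptokinase promoter driving kanamycin resistance gene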
Activity calls are given as the source filed them.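 How the source made its calls: active means EC50 no more than a set limit of log units above the highest dose; inactive means the rest.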

I'd like to know its EC50. The compound in question is `Clc1cccc(Nc2ncnc3c2cnn3-c2ccccc2)c1`
4.98 µM

I'd like to know its EC50. The compound in question is `COc1ccc(-c2cc(C3CCN(c4ncccc4[N+](=O)[O-])CC3)[nH]n2)cc1`
5.01 µM

I'd like to know its EC50. The compound in question is CC12CCC(C(=O)Nc3cccc(Cl)c3Cl)([C@H](Br)C1=O)C2(C)C (some centres not stated)
> 15 µM (inactive)

I'd like to know its EC50. The compound in question is `Cc1onc(-c2ccccc2)c1C(=O)NNC(=S)NC(=O)c1ccc(Br)cc1`
0.174 µM

I'd like to know its EC50. The compound in question is `O=C(Nc1nnc(-c2ccccc2)o1)c1ccc(Cl)cc1`
0.254 µM

I'd like to know its EC50. The compound in question is `CCOC(=O)[C@@H]1[C@H]2COc3ccccc3[C@H]2N2C(=O)N(c3ccc(C(F)(F)F)cc3)C(=O)[C@]12C`
6.08 µM

I'd like to know its EC50. The compound in question is CCCCC(CC)C(=O)Oc1ccc(O)c(C(C)(C)C)c1 (configuration not stated)
2.89 µM

I'd like to know its EC50. The compound in question is `COc1cccc(N=Nc2ccc3cccnc3c2O)c1`
< 0.06 µM

I'd like to know its EC50. The compound in question is `O=C1c2ccccc2C(=O)c2[nH]c(=O)[nH]c21`
9.21 µM

I'd like to know its EC50. The compound in question is `CCn1c(O)c(/C=N/N=C/c2ccccc2)c2ccc(C3=NNC(=O)CC3)cc21`
4.3 µM

I'd like to know its EC50. The compound in question is CCCC(NC(=S)NCC1CCCO1)C12CC3CC(CC(C3)C1)C2 (configuration not stated)
5.79 µM

I'd like to know its EC50. The compound in question is Cc1c(CCOC(=O)C2C3CC4CC(C3)CC2C4)sc[n+]1CC(=O)c1ccc(Br)cc1 (configuration not stated)
7.28 µM

I'd like to know its EC50. The compound in question is `O=c1/c(=C\c2cccc(O)c2)sc2nc(-c3ccccc3)c(-c3ccccc3)n12`
7.63 µM

I'd like to know its EC50. The compound in question is `O=C(Nc1cc(Cl)cc(Cl)c1)Nc1cnccn1`
4.85 µM

I'd like to know its EC50. The compound in question is `Cc1ccc(Nc2cc(C)nn2-c2nc(C)cc(C)n2)cc1`
6.47 µM

I'd like to know its EC50. The compound in question is `Cc1ccc(Nc2nc(N)nc(CN3CCN(c4ccccc4)CC3)n2)cc1Cl`
13.2 µM

I'd like to know its EC50. The compound in question is CCCCCCN1N=C(C)C(C(=O)c2ccc(Cl)cc2)C1=O (configuration not stated)
1.51 µM

I'd like to know its EC50. The compound in question is `Cn1cnnc1SCc1ccc(C(=O)N=Nc2c(O)n(Cc3ccc(Cl)cc3)c3ccccc23)cc1`
4.51 µM

I'd like to know its EC50. The compound in question is `O=S(=O)(Cc1cc(NCc2ccccc2)nc(-c2ccccn2)n1)c1ccccc1`
0.808 µM

I'd like to know its EC50. The compound in question is `CCc1sc(N(C(=O)Cc2ccccc2)c2ccc(F)cc2)nc1-c1ccccc1`
2.54 µM

I'd like to know its EC50. The compound in question is `O=C(C[n+]1ccc2ccccc2c1)Nc1cc(C(F)(F)F)ccc1Cl`
> 15 µM (inactive)

I'd like to know its EC50. The compound in question is COC(=O)C(Nc1ccccc1Cl)(c1cc(C)c(O)c(C)c1)C(F)(F)F (configuration not stated)
2.5 µM

----------
targetEntity: S. pyogenes SKKanGAS, kanamycin survival, BacTiterGlo, 6 h
experimentNotes: S. pyogenes SKKanGAS kanamycin growth inhibitors – SKKanGAS strain, luminescence, dose confirmation, streptokinase promoter inhibitor project, dose response (AID 1902);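 further: lower survival reflects blocked streptokinase promoter driving kanamycin resistance gene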
Active and inactive are the calls of the source.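 The calls were made as follows: active = EC50 no more than a set limit of log units above the highest dose; inactive = the rest.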
I would appreciate it if you answered using one of these outcomes: active, inactive

Per the records of this test, what outcome belongs to `Cc1cc(-c2c(C)[nH]n(-c3ccc(Cl)cc3)c2=O)n[nH]1` ?
active

Per the records of this test, what outcome belongs to `Cc1cc(NC(=O)c2sccc2C)n(-c2nc3ccccc3[nH]2)n1` ?
active

Per the records of this test, what outcome belongs to `CC(C)(C)c1cc(C(=O)NNc2cc(C(F)(F)F)ccc2Cl)n(Cc2ccccc2)n1` ?
active

Per the records of this test, what outcome belongs to `Nc1c(S(=O)(=O)c2ccccc2)c2nc3ccccc3nc2n1/N=C/c1cccc(O)c1` ?
active

Per the records of this test, what outcome belongs to CCC1CCCCN1S(=O)(=O)c1ccc(NC(=O)c2nc(S(C)(=O)=O)ncc2Cl)cc1 (stereo not given) ?
active

Per the records of this test, what outcome belongs to `COc1cc(OC)cc(-c2cc3nc4c(c(N5CCN(c6ncccn6)CC5)n3n2)CCCC4)c1` ?
active

Per the records of this test, what outcome belongs to `C[N+](C)(C)c1ccc(/C=N/Nc2nc(Cl)c(C#N)c(Cl)c2Cl)cc1` ?
inactive

Per the records of this test, what outcome belongs to CCOC(=O)CC(NC(=O)CCS(=O)(=O)c1ccc2c(c1)n(C)c(=O)c(=O)n2C)c1ccc(C)cc1 (stereo not given) ?
inactive

Per the records of this test, what outcome belongs to `CC(C)(CN=C1NS(=O)(=O)c2ccccc21)CNC(=O)c1ccccc1` ?
inactive

Per the records of this test, what outcome belongs to `O=C(Nc1ccc(F)cc1)N1CCCCCC1` ?
inactive

----------
targetEntity: S. pyogenes SKKanGAS, kanamycin survival, BacTiterGlo, 6 h
experimentNotes: S. pyogenes SKKanGAS kanamycin growth inhibitors – SKKanGAS strain, luminescence, dose confirmation, streptokinase promoter inhibitor project, dose response (AID 1902);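 further: lower survival reflects blocked streptokinase promoter driving kanamycin resistance gene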
Activity calls are given as the source filed them.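 Rule for the calls: active = EC50 no more than a set limit of log units above the highest dose; inactive = the rest.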
I would appreciate it if you answered using one of these outcomes: active, inactive

Per the records of this test, what outcome belongs to `N#C/C(=N\Nc1ccc(S(=O)(=O)N2CCc3ccccc32)cc1)C(N)=S` ?
active

Per the records of this test, what outcome belongs to CC(=O)OCC1=C(C(=O)O)N2C(=O)C(NC(=O)C(C)Cn3cc(Cl)cn3)C2SC1 (stereo unspecified) ?
active

Per the records of this test, what outcome belongs to `Cc1ccc(C)c(CN2CCCN(Cc3cc(C)ccc3C)S2(=O)=O)c1` ?
active

Per the records of this test, what outcome belongs to `Cn1c(C(=O)N2CCN(c3ccc([N+](=O)[O-])cc3)CC2)cc2c(=O)[nH]c3ccccc3c21` ?
active

Per the records of this test, what outcome belongs to `Cc1cc2occ(CC(=O)NC3=NCCS3)c2cc1C(C)C` ?
active

Per the records of this test, what outcome belongs to `N#Cc1ccccc1CN1C(=O)S/C(=C/c2cccn2-c2ccc(C(=O)O)cc2)C1=O` ?
active

Per the records of this test, what outcome belongs to CS(=O)(=O)Nc1ccc(C2=NN(C(=O)C3CCCCC3)C(c3cccs3)C2)cc1 (stereo unspecified) ?
active

Per the records of this test, what outcome belongs to `Cc1[nH]n(-c2ccccc2)c(=O)c1N=Nc1ccccc1O` ?
active

Per the records of this test, what outcome belongs to `Cc1cccc(OCCCCc2c(C)n[nH]c2C)c1C` ?
active

Per the records of this test, what outcome belongs to `COc1ccc(C(=O)NNC(=S)NC(=O)c2cccs2)cc1` ?
active

Per the records of this test, what outcome belongs to `COc1ccccc1NC(=O)NCCCCc1ccccc1` ?
inactive

Per the records of this test, what outcome belongs to `CCCCNC(=O)c1sc(=S)n2c1[nH]c(=O)c1ccccc12` ?
active

Per the records of this test, what outcome belongs to `COc1ccc(/C=C/C(=O)NC(=S)NNC(=O)c2cc(OC)c(OC)c(OC)c2)cc1OC` ?
active

Per the records of this test, what outcome belongs to COc1cccc(/C=C(/C(=O)OCC(=O)NC2CCCC(C)C2C)c2ccccc2)c1 (stereo unspecified) ?
active

Per the records of this test, what outcome belongs to `COc1cc(OC)c(NC(=O)c2sc3ncn(CC(=O)N4CCN(c5ccccn5)CC4)c(=O)c3c2C)cc1Cl` ?
active

Per the records of this test, what outcome belongs to `O=C(c1cc2ccccc2cc1O)N1CCN(c2ccccc2O)CC1` ?
active

Per the records of this test, what outcome belongs to COC(=O)C1(C(C[N+](=O)[O-])c2ccc(C)cc2)C(=O)NCC1c1ccco1 (stereo unspecified) ?
active

Per the records of this test, what outcome belongs to `O=[N+]([O-])c1cc(Br)c(O)c(/C=N/Nc2nc3ccccc3s2)c1` ?
active

Per the records of this test, what outcome belongs to `Nc1nc(-c2ccccn2)nc(N)c1Cc1ccc(Cl)cc1Cl` ?
active

Per the records of this test, what outcome belongs to `O=C(Nc1nc(-c2ccccc2)c(-c2ccccc2)o1)c1ccc(F)cc1` ?
active

Per the records of this test, what outcome belongs to `COc1cc2ccccc2cc1C(=O)NC(=S)Nc1ccc(C(=O)O)cc1` ?
active
